IC50 by entry:
# Tgt: HLA-DR DRB4*0101 (human)
# Assay procedure: competition with 125I-labelled reference peptide on purified HLA-DR
// return numeric value only (unit: nM, not printed)

Below, each entry is followed by its recorded IC50 result.
binder="NGTVKDRSPHRTLMS (modifications not checked) [Flu.NA.126 peptide …]" value_observed=8880
binder="IGNMISIWVSHSIHTG (modifications not checked) [Flu.NA.26 peptide …]" value_observed=817
binder="NLEYQIGYICSGVFG (modifications not checked) [Flu.NA.289 peptide …]" value_observed=354
binder="WAVYSKDNSIRIGSK (modifications not checked) [Flu.NA.77 peptide …]" value_observed=19500
binder="VAVLKYNGIITDTIKSW (modifications not checked) [Flu.NA.183 peptide …]" value_observed=289

Any idea what its IC50 is? The binder is SLMLQIGNMISIWVSHS (modifications not checked) [Flu.NA.21 peptide …]
746

Any idea what its IC50 is? The binder is RTFFLTQGALLNDKHS (modifications not checked) [Flu.NA.110 peptide …]
2320
